molecular target: T1, AFP158/HLA-A*02:01 complex (human); experiment: SPR, crude scFv captured, pMHC analyte;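 further: complex injected at several concentrations over the chip, association phase then running buffer for dissociation, KD derived from on- and off-rates computed from both curves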
T1 construct: flowed as analyte in SPR
RECORDED_METRIC: kon
I'd appreciate it if you wrote the number followed by its unit.

Query :: Record request: kon value, item AS170036 VL1VH1-57K98Q108D (scFv, also called 74-AS170036 VL1VH1-57K98Q108D) scFv: QSALTQPRSVSGSPGQSVTISCAGTSSDVGSENYVSWYQQHPGKAPKLMIYQVNKRASGVPDRFSGSKSGNTASLTISGLQAEDEADYYCASYRSSDQNIVFGGGTKLTVLGGGGSGGGGSGGGGSEVQLVESGGGLVQPGGSLRLSCAASGFTFSSYAMSWVRQAPGKGLEWVSTINSGTGKPYYADSVKGRFTISRDNSKNTLYLQMNSLRAEDTAVYYCAKNFFDGSWFLDPPAMDYWGQGTLVTVSSHHHHHH
Result :: 200000 M⁻¹ s⁻¹

Query :: Record request: kon value, item AS170036 VL1VH1-57H98Q108S (scFv, also called 66-AS170036 VL1VH1-57H98Q108S) scFv: QSALTQPRSVSGSPGQSVTISCAGTSSDVGSENYVSWYQQHPGKAPKLMIYQVNKRASGVPDRFSGSKSGNTASLTISGLQAEDEADYYCASYRSSDQNIVFGGGTKLTVLGGGGSGGGGSGGGGSEVQLVESGGGLVQPGGSLRLSCAASGFTFSSYAMSWVRQAPGKGLEWVSTINSGTGHPYYADSVKGRFTISRDNSKNTLYLQMNSLRAEDTAVYYCAKNFFDGSWFLSPPAMDYWGQGTLVTVSSHHHHHH
Result :: 160000 M⁻¹ s⁻¹

Query :: Record request: kon value, item AS170036 VL1VH1-56N98I108S (scFv, also called 54-AS170036 VL1VH1-56N98I108S) scFv: QSALTQPRSVSGSPGQSVTISCAGTSSDVGSENYVSWYQQHPGKAPKLMIYQVNKRASGVPDRFSGSKSGNTASLTISGLQAEDEADYYCASYRSSDINIVFGGGTKLTVLGGGGSGGGGSGGGGSEVQLVESGGGLVQPGGSLRLSCAASGFTFSSYAMSWVRQAPGKGLEWVSTINSGTNSPYYADSVKGRFTISRDNSKNTLYLQMNSLRAEDTAVYYCAKNFFDGSWFLSPPAMDYWGQGTLVTVSSHHHHHH
Result :: 190000 M⁻¹ s⁻¹

Query :: Record request: kon value, item AS170036 VL1VH1-57M98Q108S (scFv, also called 84-AS170036 VL1VH1-57M98Q108S) scFv: QSALTQPRSVSGSPGQSVTISCAGTSSDVGSENYVSWYQQHPGKAPKLMIYQVNKRASGVPDRFSGSKSGNTASLTISGLQAEDEADYYCASYRSSDQNIVFGGGTKLTVLGGGGSGGGGSGGGGSEVQLVESGGGLVQPGGSLRLSCAASGFTFSSYAMSWVRQAPGKGLEWVSTINSGTGMPYYADSVKGRFTISRDNSKNTLYLQMNSLRAEDTAVYYCAKNFFDGSWFLSPPAMDYWGQGTLVTVSSHHHHHH
Result :: 160000 M⁻¹ s⁻¹

Query :: Record request: kon value, item AS170036 VL1VH1-56Y98I108A (scFv, also called 43-AS170036 VL1VH1-56Y98I108A) scFv: QSALTQPRSVSGSPGQSVTISCAGTSSDVGSENYVSWYQQHPGKAPKLMIYQVNKRASGVPDRFSGSKSGNTASLTISGLQAEDEADYYCASYRSSDINIVFGGGTKLTVLGGGGSGGGGSGGGGSEVQLVESGGGLVQPGGSLRLSCAASGFTFSSYAMSWVRQAPGKGLEWVSTINSGTYSPYYADSVKGRFTISRDNSKNTLYLQMNSLRAEDTAVYYCAKNFFDGSWFLAPPAMDYWGQGTLVTVSSHHHHHH
Result :: 240000 M⁻¹ s⁻¹
